# assay-remarks: Human pregnane X receptor (PXR) small molecule agonists, qHTS cell viability counter screen (AID 1346977); also: nearly all actives have a fitted effect of over 50% in size
# conditions: PXR-Luc HepG2 viability, CellTiter-Fluor, 24 h; series mostly up to 92.4 µM
Records with an inconclusive call do not appear. The source made the active and inactive calls. Calls follow the shape of the dose curve; as a rule, active = well fitted cell-killing curve with a large enough effect in the repeat runs; inconclusive = weak or mixed curves, or effect the other way; inactive = flat fitted curve, though single readings scatter.
parameter: outcome

Here is how some molecules turned out for outcome.
CC(O)CCO (stereo unspecified) ... inactive
S=C1NCCN1 ... inactive
O=C(O)CC[N+](=O)[O-] ... inactive
O=C(NC(=O)c1c(F)cccc1F)Nc1ccc(Cl)cc1 ... inactive
CCCCN(CC)c1c([N+](=O)[O-])cc(C(F)(F)F)cc1[N+](=O)[O-] ... inactive

For every item in the list below, what is its measured outcome?
1. CCCCC(CC)COC(=O)c1ccc(C(=O)OCC(CC)CCCC)c(C(=O)OCC(CC)CCCC)c1 (stereo unspecified)
2. ClC1C(Cl)C(Cl)C(Cl)C(Cl)C1Cl (stereo unspecified)
3. CCC(CC)Nc1c([N+](=O)[O-])cc(C)c(C)c1[N+](=O)[O-]
4. NCc1cccnc1
5. Cc1ccc(OP(=O)(Oc2ccc(C)cc2)Oc2ccc(C)cc2)cc1

output:
1. inactive
2. inactive
3. inactive
4. inactive
5. inactive

For every item in the list below, what is its measured outcome?
1. O=C1C=CC(=O)C=C1
2. Nc1ccc(Cl)cc1N
3. CC(C)=CC1C(C(=O)OCc2coc(Cc3ccccc3)c2)C1(C)C (stereo unspecified)
4. Oc1cc(Cl)ccc1Cl

output:
["inactive", "inactive", "inactive", "inactive"]

For every item in the list below, what is its measured outcome?
1. Brc1ccc(Oc2cc(Br)c(Br)cc2Br)c(Br)c1
2. CCN(CC)C(=O)/C(Cl)=C(\C)OP(=O)(OC)OC
3. O=P(Oc1ccccc1)(Oc1ccccc1)Oc1ccccc1
4. C=CCc1ccc(OC)cc1
5. Nc1ccncc1
6. CCN(N=O)C(N)=O
7. CC(C)N(C(=O)SCC(Cl)=C(Cl)Cl)C(C)C
8. N#CC(Br)Br

output:
1: inactive; 2: inactive; 3: inactive; 4: inactive; 5: inactive; 6: inactive; 7: inactive; 8: inactive

---

# target-under-test: Nuclear receptor subfamily 1 group I member 3 (Homo sapiens)
# assay-remarks: qHTS assay to identify small molecule agonists of the constitutive androstane receptor (CAR) signaling pathway (AID 1224839); also: nearly all actives have a fitted effect of over 15% in size;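 as to activation: HepG2 cells stably carrying human CAR and a CYP2B6 luciferase reporter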
# conditions: HepG2 hCAR CYP2B6-luciferase, agonist mode, 24 h; series mostly up to 92.4 µM
Results filed as inconclusive are left out. Active and inactive are the calls of the source. Calls come from the whole dose curve; as a rule, active = well fitted activation curve with a large enough effect in the repeat runs; inconclusive = weak or mixed curves; inactive = no such curve, though single readings can be large or run the other way.
Return exactly one item of True = active, False = inactive

Record excerpt, results attached:
C=C(C)[C@H]1Cc2c(ccc3c2O[C@@H]2COc4cc(OC)c(OC)cc4[C@@H]2C3=O)O1 ... False
NCc1cccnc1 ... False

input: # lookup: test call for `c1nc[nH]n1`
output: False

input: Param item: `O=P(O)(O)CCCl`
output: False

input: Param item: `N#CCCCl`
output: False

input: Param item: `COC(=O)c1sccc1S(=O)(=O)NC(=O)Nc1nc(C)nc(OC)n1`
output: False

input: Param item: `CCCCOCCOP(=O)(OCCOCCCC)OCCOCCCC`
output: False

input: Param item: CCCCC(CC)COC(=O)c1ccc(C(=O)OCC(CC)CCCC)c(C(=O)OCC(CC)CCCC)c1 (stereo not given)
output: False

input: Param item: `O=C1C=CC(=O)C=C1`
output: False

input: Param item: `CCCCCc1cc(O)cc(O)c1`
output: True

input: Param item: `C=CCc1ccc2c(c1)OCO2`
output: False

input: Param item: `C=CCc1ccc(OC)cc1`
output: False

input: Param item: C=C(C)C(=O)OCC1CO1 (stereo not given)
output: False

input: Param item: O=c1oc2ccccc2c(O)c1C(CC(O)c1ccc(-c2ccc(Br)cc2)cc1)c1ccccc1 (stereo not given)
output: False

input: Param item: `NNC(N)=S`
output: False

---

# assay-remarks: qHTS assay for small molecule agonists of the antioxidant response element (ARE) signaling pathway - cell viability counter screen (AID 743203); also: nearly all actives have a fitted effect of over 55% in size
# conditions: ARE-bla HepG2 viability, CellTiter-Glo luminescence, 16 h; series mostly up to 73.3 µM
Records with an inconclusive call do not appear. The source made the active and inactive calls. Calls come from the whole dose curve.
parameter: outcome

Here is how some compounds turned out for outcome.
Oc1cc(Cl)c(Cl)cc1Cl ... inactive
CCC(C)c1ccc(O)cc1 (configuration not stated) ... inactive
C[C@]12CCC(=O)C[C@@H]1CC[C@@H]1[C@@H]2CC[C@]2(C)[C@@H](O)CC[C@@H]12 ... inactive
CC(C)c1ccc(CO)cc1 ... inactive

For every item in the list below, what is its measured outcome?
1. CCCCN(CCCC)N=O
2. C#CCOS(=O)OC1CCCCC1Oc1ccc(C(C)(C)C)cc1 (configuration not stated)
3. CC(C)(C)c1ccccc1O

output:
1: inactive; 2: inactive; 3: inactive

---

# target-under-test: Cytochrome P450 2C19 (Homo sapiens) (UniProt P33261)
# Sequence (P33261 whole entry, looked up): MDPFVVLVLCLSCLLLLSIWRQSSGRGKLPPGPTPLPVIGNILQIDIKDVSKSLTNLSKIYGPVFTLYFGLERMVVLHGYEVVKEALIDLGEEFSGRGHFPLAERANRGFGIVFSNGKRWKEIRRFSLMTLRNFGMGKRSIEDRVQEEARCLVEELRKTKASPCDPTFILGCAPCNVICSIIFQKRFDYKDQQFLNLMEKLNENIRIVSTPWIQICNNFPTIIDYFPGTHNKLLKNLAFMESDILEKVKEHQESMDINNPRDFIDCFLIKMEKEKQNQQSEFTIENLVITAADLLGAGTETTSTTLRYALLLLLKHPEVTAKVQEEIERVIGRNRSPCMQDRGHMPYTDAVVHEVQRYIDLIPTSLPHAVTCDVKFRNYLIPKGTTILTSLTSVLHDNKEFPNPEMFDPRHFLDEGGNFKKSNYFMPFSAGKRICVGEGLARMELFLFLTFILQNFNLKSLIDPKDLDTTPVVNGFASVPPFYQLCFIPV
# assay-remarks: Cytochrome P450 Family 2 Subfamily C Member 19 (CYP2C19) small molecule antagonists: luciferase reporter qHTS assay (AID 1671197); also: nearly all actives have a fitted effect of over 65% in size
# conditions: P450-Glo CYP2C19 enzyme, luciferin luminescence, 1 h; series mostly up to 115 µM
Records with an inconclusive call do not appear. Activity calls are given as the source filed them. The call rests on the fitted dose curve; in most records, active means well fitted inhibition curve with a large enough effect in the repeat runs; inconclusive means weak or mixed curves; inactive means no such curve, though single readings can be large or run the other way.
Return exactly one item of active, inactive

Record excerpt, results attached:
CCC(C)(C)c1ccc(O)cc1 ... inactive
O=C1C=CC(=O)C=C1 ... inactive
N#Cc1cc(Br)c(O)c(Br)c1 ... inactive
Nc1ccc(Cl)c(Cl)c1 ... inactive
N#CC(Br)Br ... inactive
Nc1ccncc1 ... inactive
Nc1cccnc1 ... active
O=Cc1ccco1 ... inactive

input: # lookup: test call for `Cc1cc(C)cc(C)c1`
output: inactive

input: Param item: `O=C(NC(=O)c1c(F)cccc1F)Nc1ccc(Cl)cc1`
output: inactive

input: Param item: `Clc1nc(Cl)nc(Cl)n1`
output: inactive

input: Param item: `CN(C)C(=O)Nc1ccc(Cl)cc1`
output: active

---

# assay-remarks: qHTS assay to identify small molecule antagonists of the estrogen receptor beta (ER-beta) signaling pathway - cell viability counter screen (AID 1259382);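 also: HEK293T cells carrying ER-beta-UAS-bla reporter stimulated with estradiol; nearly all actives have a fitted effect of over 55% in size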
# conditions: ER-beta-UAS-bla HEK293T viability, CellTiter-Glo luminescence, 16 h; series mostly up to 92.4 µM
Records with an inconclusive call do not appear. Activity calls are given as the source filed them. The call rests on the fitted dose curve; in most records, active means well fitted cell-killing curve with a large enough effect in the repeat runs; inconclusive means weak or mixed curves; inactive means flat fitted curve, though single readings scatter.
Return exactly one item of t = active, f = inactive

CCOc1cc(Oc2ccc(C(F)(F)F)cc2Cl)ccc1[N+](=O)[O-] ... f

input: # lookup: test call for `CC(C)NC(C)C`
output: f

---

# target-under-test: Bile acid receptor (Homo sapiens) (UniProt Q96RI1)
# Sequence (Q96RI1 whole entry, looked up): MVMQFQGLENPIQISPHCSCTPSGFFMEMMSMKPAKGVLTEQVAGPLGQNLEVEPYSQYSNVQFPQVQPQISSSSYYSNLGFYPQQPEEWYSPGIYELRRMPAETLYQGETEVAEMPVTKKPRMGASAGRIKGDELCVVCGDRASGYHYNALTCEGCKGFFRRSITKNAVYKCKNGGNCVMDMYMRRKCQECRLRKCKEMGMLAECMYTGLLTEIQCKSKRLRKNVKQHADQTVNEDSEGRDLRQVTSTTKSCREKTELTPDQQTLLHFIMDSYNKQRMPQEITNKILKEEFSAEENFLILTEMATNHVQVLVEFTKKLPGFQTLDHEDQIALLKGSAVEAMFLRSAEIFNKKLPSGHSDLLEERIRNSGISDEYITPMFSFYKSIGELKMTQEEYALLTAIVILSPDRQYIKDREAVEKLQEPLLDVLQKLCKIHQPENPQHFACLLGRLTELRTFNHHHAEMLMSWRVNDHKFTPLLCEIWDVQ
# assay-remarks: qHTS assay to identify small molecule antagonists of the farnesoid-X-receptor (FXR) signaling pathway (AID 743217)
# conditions: HEK293T FXR-UAS-bla, beta-lactamase ratio, CDCA-stimulated, 16 h; series mostly up to 62.6 µM
Inconclusive results are not listed. The source made the active and inactive calls. Calls come from the whole dose curve; as a rule, active = well fitted inhibition curve with a large enough effect in the signal ratio in the repeat runs (not every such curve was filed as active); inconclusive = weak or mixed curves, or effect the other way; inactive = no such curve, though single readings can be large or run the other way; the % refers to the signal ratio.
Return exactly one item of active, inactive

Nc1cccnc1 ... inactive
CC(C)c1ccc(CO)cc1 ... inactive
CCCCN(CCCC)N=O ... inactive

input: # lookup: test call for `CN(C)C(=O)Nc1ccc(Cl)cc1`
output: inactive

input: Param item: C#CCOS(=O)OC1CCCCC1Oc1ccc(C(C)(C)C)cc1 (stereo unspecified)
output: inactive

input: Param item: `CCC(C)(C)c1ccc(O)cc1`
output: inactive

input: Param item: `OCC(O)CO`
output: inactive

input: Param item: `Oc1ccc(-c2ccccc2)cc1`
output: inactive

input: Param item: `CC(C)(OOC(C)(C)c1ccccc1)c1ccccc1`
output: inactive

input: Param item: `CCc1cccc(CC)c1N(COC)C(=O)CCl`
output: inactive

input: Param item: CCC(C)c1ccc(O)cc1 (stereo unspecified)
output: inactive

input: Param item: `Nc1c(Cl)cc([N+](=O)[O-])cc1Cl`
output: inactive

input: Param item: `COP(=S)(OC)Oc1ccc([N+](=O)[O-])cc1`
output: inactive

input: Param item: `COP(=O)(OC)OC`
output: inactive

input: Param item: `CCC(CC)Nc1c([N+](=O)[O-])cc(C)c(C)c1[N+](=O)[O-]`
output: inactive

input: Param item: CC(C)=CC1C(C(=O)OCc2coc(Cc3ccccc3)c2)C1(C)C (stereo unspecified)
output: inactive

input: Param item: `c1ccc(-c2cccc(-c3ccccc3)c2)cc1`
output: inactive

input: Param item: `NNC(N)=S`
output: inactive

input: Param item: `CCOc1cc(Oc2ccc(C(F)(F)F)cc2Cl)ccc1[N+](=O)[O-]`
output: inactive

input: Param item: `NCc1cccnc1`
output: inactive

input: Param item: `CCCCCc1cc(O)cc(O)c1`
output: inactive

input: Param item: `CCOC(=S)S`
output: inactive

input: Param item: `CCN(CC)N=O`
output: inactive

input: Param item: O=c1oc2ccccc2c(O)c1C(CC(O)c1ccc(-c2ccc(Br)cc2)cc1)c1ccccc1 (stereo unspecified)
output: inactive

input: Param item: CCC(C)c1cc([N+](=O)[O-])cc([N+](=O)[O-])c1O (stereo unspecified)
output: inactive

input: Param item: `C=C(C)[C@H]1Cc2c(ccc3c2O[C@@H]2COc4cc(OC)c(OC)cc4[C@@H]2C3=O)O1`
output: active
